- System: SNARK
- Construct: gene NUAK2
- Details: concentration: 1 μM, replicates: in singlicate; n = 1;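 further: KINOMEscan kinase panel screen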
Assignment: determine reported %Inh for the given molecules.
Numbers only, in %.

As a guide, the following entries are already answered.
molecule=Fc1ccc(-c2ncn(CCCN3CCOCC3)c2-c2cccnc2)cc1 endpoint_unit=% experimental_value=0
molecule=Cc1cn2c(=O)cc(N3CCOCC3)nc2n1Cc1cccc(Cl)c1Cl endpoint_unit=% experimental_value=0
molecule=N#Cc1ccc(-c2cc(-c3c[nH]nc3-c3ccccn3)ccn2)cc1 endpoint_unit=% experimental_value=0
molecule="NCC(NC(=O)c1cc(-c2cn[nH]c2)c(-c2ccnc3[nH]ccc23)s1)c1ccccc1.O=C(O)C(F)(F)F.O=C(O)C(F)(F)F (centres unmarked)" endpoint_unit=% experimental_value=92.2
molecule=Nc1nccc(-c2c(-c3ccc(F)cc3)ncn2C2CCN(CC(F)(F)F)CC2)n1 endpoint_unit=% experimental_value=0

I would be grateful if you could provide %Inh for each of the following entries.
1. O=c1cc(N2CCOCC2)nc2n(Cc3cccc(C(F)(F)F)c3)ccn12
2. CC(C)Oc1ccc2c(-c3ccnc(Nc4ccc(N5CCN(C)CC5)cc4)n3)cnn2n1
3. COCCNC(=O)c1ccc(-c2cc(C(=O)NC3CC3)cc(F)c2C)cc1

1: 0; 2: 99.6; 3: 16

* * *

- Tested on: RSK3(Kin.Dom.2-C-terminal)
- Construct: gene RPS6KA2
- Details: concentration: 1 μM, replicates: in singlicate; n = 1
Record form. Attribute: %Inh. Fill in for each entry.
Numbers only, in %.

Past entries and their recorded results:
compound=CN1c2ccc(CNc3ccc(F)cc3)cc2-c2c(cnn2C)S1(=O)=O experimental_value=8
compound="COc1ccc(S(=O)(=O)NC2CCN(c3cc(C)nc(Nc4cccc(C#N)c4)n3)CC2)cc1.O=C(O)C(F)(F)F [GSK1653539]" experimental_value=0
compound="N#Cc1ccc(-c2cc(-c3c[nH]nc3-c3ccccn3)ccn2)cc1 [GW693028]" experimental_value=0
compound="Cn1cc(-c2ccc3c(c2)CCN3C(=O)Cc2ccccc2Cl)c2c(N)ncnc21 [GSK2608885]" experimental_value=12
compound="Nc1nc(-c2ccc3c(N)n[nH]c3c2)cc(N2CCCC2)n1 [GSK2227430]" experimental_value=17

Batch lookup, %Inh per entry.
1. NS(=O)(=O)CCc1cccc(Nc2nccc(-c3c(-c4cccc(NC(=O)c5c(F)cccc5F)c4)nn4ccccc34)n2)c1 [GSK336735]
2. c1ccc(-c2n[nH]cc2-c2ccnc3ccccc23)nc1 [GW271431]
3. CC(C)(C)n1cnc2c(N)ncnc21 [SKF-97359]
4. Cc1c2ccc(N(C)c3ccnc(Nc4cccc(S(N)(=O)=O)c4)n3)cc2nn1Cc1ccccc1.Cl.Cl [GW787226]
5. CSc1ccc(-c2cc3ncnc(SCC(=O)O)c3s2)cc1
6. O=c1cc(N2CCOCC2)nc2n(Cc3cccc4ccccc34)ccn12 [GSK2333389]
7. Cc1cccc(-c2nc(-c3ccc(S(C)(=O)=O)cc3)sc2-c2ccncc2)c1

[0, 0, 18, 0, 20, 0, 4]

Return reported %Inh values for all items listed beneath this line.
1. N#Cc1c(N2CCOCC2)sc(-c2ccn[nH]2)c1-c1ccc(Cl)cc1
2. COc1cc2c(cc1OC[C@@H](O)CO)ncc1c3ccc(C#N)cc3[nH]c21
3. CNc1ncnc2[nH]ncc12 [SKF-18355]
4. CC(=O)Nc1ccc(COc2ccc(Nc3ccnc4cc(-c5ccccn5)ccc34)cc2)cc1.Cl [GW440148]
5. Cc1cn2c(=O)cc(N3CCOCC3)nc2n1Cc1cccc(Cl)c1Cl [GSK2334006]

[2, 11, 22, 11, 0]

Please give %Inh, item by item, for the list that follows.
1. Cc1cccc(-c2nc(Nc3ccc4ncsc4c3)c3ccccc3n2)n1 [GW867588]
2. COc1cc(Nc2nccc(N3CCC(NC(=O)c4cccc(NC(C)=O)c4)C3)n2)cc(OC)c1OC (centres unmarked) [GSK1379754]
3. CN1c2ccc(NCc3ccc(F)cc3)cc2-c2c(cnn2C)S1(=O)=O

9
0
22

* * *

- Tested on: TESK1
- Details: concentration: 1 μM, replicates: in singlicate; n = 1
Quantity kind: %Inh (%)
One number for each entry, in %.

Reference set, count: 4
compound=O=c1cc(N2CCOCC2)nc2n(Cc3cccc(F)c3)ccn12 endpoint_unit=% experimental_value=19
compound=Cc1cccc(-c2nc(Nc3ccc4ncsc4c3)c3ccccc3n2)n1 endpoint_unit=% experimental_value=0
compound=O=C1NC(=O)C(N2CCc3ccccc32)=C1c1cccc(Cl)c1 endpoint_unit=% experimental_value=30
compound=COc1cc2c(cc1OCCN1CCN(C)CC1)ncc1c3ccc(C#N)cc3[nH]c21 endpoint_unit=% experimental_value=0

In the following, a different compound is considered.
State its %Inh on TESK1: COc1ccc(Nc2nccc(N3CCC(NC(=O)Nc4cc(C)ccc4C)C3)n2)cc1 (centres unmarked)
14

* * *

- Test system: LATS1
- Details: concentration: 1 μM, replicates: in singlicate; n = 1
Quantity kind: %Inh (%)
Give bare numbers, in %.

These recorded examples may help you get a feel for the data.
compound="O=C(Nc1n[nH]c2cc(-c3cccc(F)c3)ccc12)C1CC1 [SB-735464]" quantity_kind=%Inh experimental_value=0
compound=CN1c2ccc(NCc3ccc(F)cc3)cc2-c2c(cnn2C)S1(=O)=O quantity_kind=%Inh experimental_value=0

List the reported %Inh of each compound below.
1. O=c1cc(N2CCOCC2)nc2n(Cc3cccc4ccccc34)ccn12 [GSK2333389]
2. COc1ccc(Nc2ncc(C#N)c(Nc3ccccc3C(N)=O)n2)cc1N1CCN(C)CC1.Cl [GSK1558669]
3. CC(C)Oc1ccc2c(-c3ccnc(Nc4ccc(N5CCN(C)CC5)cc4)n3)cnn2n1 [GW696155]
4. NCC(NC(=O)c1cc(-c2cn[nH]c2)c(-c2ccnc3[nH]ccc23)s1)c1ccccc1.O=C(O)C(F)(F)F.O=C(O)C(F)(F)F (centres unmarked) [GSK1325775]

1. 0
2. 78
3. 0
4. 59

Kindly give each listed record's %Inh.
1. CN(C1=C(c2ccccc2)C(=O)NC1=O)c1ccccc1 [SB-334860]
2. COc1cc2c(cc1OC[C@@H](O)CO)ncc1c3ccc(C#N)cc3[nH]c21
3. Cc1cccc(-c2nc(-c3ccc(S(C)(=O)=O)cc3)sc2-c2ccncc2)c1
4. CCCCCc1nc2c(N)ncnc2n1CCCCC [SKF-97255]
5. C[C@@H](Oc1cc(-n2cnc3ccc(NC(=O)NC(C)(C)C)cc32)sc1C(N)=O)c1ccccc1Cl [GSK346294]
6. O=c1cc(N2CCOCC2)nc2n(Cc3cccc(F)c3)ccn12 [GSK2297430]
7. O=C(Nc1cccc(-c2nn3ncccc3c2-c2ccnc(Nc3cccc(C(F)(F)F)c3)n2)c1)c1c(F)cccc1F [GSK299495]
8. COc1ccc(Nc2nccc(N3CCC(NC(=O)Nc4cc(C)ccc4C)C3)n2)cc1 (centres unmarked) [GSK1379741]

0
0
36
0
0
0
13
0

Below are 5 compounds. Give each one its %Inh.
1. Cc1cn2c(=O)cc(N3CCOCC3)nc2n1Cc1cccc(Cl)c1Cl [GSK2334006]
2. O=C(NOCC1CC1)c1ccc(F)c(F)c1Nc1ccc(I)cc1Cl
3. CN(C(=O)c1ccc(-c2cc(-c3c[nH]nc3-c3ccccn3)ccn2)cc1)C1CCOCC1 [GW810083]
4. COc1ccc(S(=O)(=O)NC2CCN(c3cc(C)nc(Nc4cccc(C#N)c4)n3)CC2)cc1.O=C(O)C(F)(F)F [GSK1653539]
5. NS(=O)(=O)c1cccc(-c2ccc3nccc(-c4cccc(S(N)(=O)=O)c4)c3c2)c1 [GW867253]

1: 0; 2: 0; 3: 0; 4: 0; 5: 0

State the recorded %Inh for every item in the following list.
1. CCc1ccnc(/C=C/c2n[nH]c3cc(Sc4ccccc4C(=O)NC)ccc23)c1
2. Cn1ccc2ncnc(Oc3ccc(NC(=O)Nc4ccncc4)c(Cl)c3)c21
3. COCCNC(=O)c1ccc(-c2cc(C(=O)NC3CC3)cc(F)c2C)cc1 [GW868318]
4. O=C(NCCNc1ccnc(Nc2ccc(F)cc2)n1)c1cc2ccccc2s1 [GSK1379874]
5. Cc1ccc(C(=O)NCC(N)=O)cc1-n1c(C)cc(OCc2ccc(F)cc2F)c(Br)c1=O
6. N#Cc1c(N2CCOCC2)sc(-c2ccn[nH]2)c1-c1ccc(Cl)cc1
7. O=c1cc(N2CCOCC2)nc2n(Cc3cccc(Cl)c3Cl)c(C3CC3)nn12 [GSK2358994]

[9, 0, 10, 0, 13, 22, 0]

* * *

Please respond with reported %Inh for every item in the list.
- Tested on: HPK1
- Details: concentration: 1 μM, replicates: in singlicate; n = 1
Numbers only, in %.

Known %Inh results, listed for orientation:
compound="COc1ccc(Nc2nccc(N3CCC(NC(=O)Nc4cccc(C(C)=O)c4)C3)n2)cc1 (stereo not shown)" quantity_kind=%Inh experimental_value=40
compound=Cc1c2ccc(N(C)c3ccnc(Nc4cccc(S(N)(=O)=O)c4)n3)cc2nn1Cc1ccccc1.Cl.Cl quantity_kind=%Inh experimental_value=76
compound=Cc1ccc(NC(=O)c2ccnc(N3CCN(C)CC3)c2)cc1-c1ccc(C(=O)NCC2CC2)cc1 quantity_kind=%Inh experimental_value=0

Now consider the entry below.
Recorded %Inh for O=C1NC(=O)C(N2CCc3ccccc32)=C1c1cccc(Cl)c1 , please?
19
